All values here come from the supplement of paper PMC11908140.

B1: library; numbered along this chain (parent)
chain: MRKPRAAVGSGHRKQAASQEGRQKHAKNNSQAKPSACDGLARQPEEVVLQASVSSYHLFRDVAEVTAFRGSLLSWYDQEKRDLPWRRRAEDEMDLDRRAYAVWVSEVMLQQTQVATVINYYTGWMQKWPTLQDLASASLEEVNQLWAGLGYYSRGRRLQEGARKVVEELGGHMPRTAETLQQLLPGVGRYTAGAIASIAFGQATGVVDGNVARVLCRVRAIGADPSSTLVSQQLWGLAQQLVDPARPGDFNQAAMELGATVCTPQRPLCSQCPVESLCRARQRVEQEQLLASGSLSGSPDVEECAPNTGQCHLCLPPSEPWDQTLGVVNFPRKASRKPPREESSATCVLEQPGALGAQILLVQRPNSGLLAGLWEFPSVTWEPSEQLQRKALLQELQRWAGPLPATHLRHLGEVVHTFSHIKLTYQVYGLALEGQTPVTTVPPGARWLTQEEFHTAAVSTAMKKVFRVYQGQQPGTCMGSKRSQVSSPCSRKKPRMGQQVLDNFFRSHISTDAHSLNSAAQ

- Variants of: B1
- experimental-protocol: 8OG:A repair function score (normalized; synonymous = 0, nonsense = -1) (normalized log-likelihood score); higher = more repair activity (WT-like);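 also: cells sorted at 72 h after reporter transfection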
- recorded-conditions: with 8OG:A DNA repair reporter (GFP) in HEK-293 MUTYH KO cells
reported-property: 8OG:A repair function score
Answer with the value's number alone.

The examples below pair each entry with its known result.
[[record]]
variant_annotation = "N517T"
reported_property = "8OG:A repair function score"
reported_measurement = -0.0674

[[record]]
variant_annotation = "L411H"
reported_property = "8OG:A repair function score"
reported_measurement = 0.0947

[[record]]
variant_annotation = "A456D"
reported_property = "8OG:A repair function score"
reported_measurement = -0.523

[[record]]
variant_annotation = "Q113S"
reported_property = "8OG:A repair function score"
reported_measurement = -0.0696

[[record]]
variant_annotation = "S367D"
reported_property = "8OG:A repair function score"
reported_measurement = -0.0756

[[record]]
variant_annotation = "A137F"
reported_property = "8OG:A repair function score"
reported_measurement = -0.738


So what does the record say about 8OG:A repair function score for Q110V ?
0.0461

8OG:A repair function score lookup needed for P494T , thanks.
0.0124

Any idea what 8OG:A repair function score was measured for Q233P ?
-0.428

So what does the record say about 8OG:A repair function score for A162D ?
-1.2

I would be grateful if you could share the reported 8OG:A repair function score for G434N .
-0.392
